Give IC50 for every item shown.
# Tested on: CCRF-CEM
# assay-text: Concentration that produced 50% inhibition of CCRF-CEM leukemia tumor cell growth was determined
# Type: functional
# condition-description: Homo sapiens, read-out: ID50 (the source's name)
Value expressed in µM; do not type the unit.

Respond only with IC50 recorded for Nc1ncnc2c([C@@H]3O[C@H](CO)[C@@H](O)[C@H]3O)[nH]nc12
6.1

Respond only with IC50 recorded for Nc1nn2c([C@@H]3O[C@H](CO)[C@@H](O)[C@H]3O)nnc2c(=S)[nH]1
67

Respond only with IC50 recorded for Nc1nc(N)c2nnc([C@@H]3O[C@H](CO)[C@@H](O)[C@H]3O)n2n1
44.7

Respond only with IC50 recorded for O=C1N=CN=C2C([C@@H]3O[C@H](CO)[C@@H](O)[C@H]3O)=NNC12 (stereo not given in full)
8.4

Respond only with IC50 recorded for Nc1ncnn2c([C@@H]3O[C@H](CO)[C@@H](O)[C@H]3O)nnc12
5
